Readings of growth inhibition for the listed compounds
assay: NCI Yeast Anticancer Drug Screen. Data for the mlh1 rad18 strain (AID 175); details: S. cerevisiae mlh1 rad18 strain growth inhibition; at 50.0 µM; stronger effect = higher value
About 79,000 compounds went through this panel and 15% of them were active in at least one assay; those are over-represented in the sample as a whole. Calls of active or inactive are those of the source. No stated cut-off is given here; in the data, active means growth inhibition above about 70%; inactive means the rest.
reportedProperty: growth inhibition

[
  {
    "compound": "Cc1ccc(NC(=O)N2CC2C)cc1NC(=O)N1CC1C (stereo not drawn)",
    "valueObserved": "-9.45% (inactive)"
  },
  {
    "compound": "CCCCCCCCCCN(CCCCCCCCCC)C(C)C(O)c1ccc2cc(Br)c3ccccc3c2c1 (stereo not drawn)",
    "valueObserved": "-14.3% (inactive)"
  },
  {
    "compound": "COc1ccc(-c2c(O)c3cccc(-c4ccccc4)c3oc2=O)cc1",
    "valueObserved": "7.5% (inactive)"
  }
]

###

# growth inhibition listing for each entry below
assay: NCI Yeast Anticancer Drug Screen. Data for the mlh1 rad18 strain (AID 175); conditions: S. cerevisiae mlh1 rad18 strain growth inhibition; at 50.0 µM; stronger effect = higher value
About 79,000 compounds went through this panel and 15% of them were active in at least one assay; those are over-represented in the sample as a whole.

[
  {
    "compound": "COc1ccc(C(=O)CCc2cccc(NC(=O)CCCl)c2)cc1",
    "growth inhibition / %": -11.8
  },
  {
    "compound": "COc1ccc(N=Cc2ccc(C#N)cc2)cc1",
    "growth inhibition / %": -4.9
  },
  {
    "compound": "C=CCSc1ncnc2nc[nH]c12",
    "growth inhibition / %": 9.1
  },
  {
    "compound": "N#Cc1c(Br)n(C2OC(CO)C(O)C2O)c2ncncc12 (stereo not drawn)",
    "growth inhibition / %": 2.7
  },
  {
    "compound": "O=[N+]([O-])c1ccc(Oc2ccc3ccccc3c2)c([N+](=O)[O-])c1",
    "growth inhibition / %": -14.3
  },
  {
    "compound": "C=CCCCC1CCCNC1=O (stereo not drawn)",
    "growth inhibition / %": 0.45
  },
  {
    "compound": "CCCCCCC/C=N/Nc1ccc([N+](=O)[O-])cc1[N+](=O)[O-]",
    "growth inhibition / %": 12.9
  },
  {
    "compound": "Cc1c(C(=O)CSc2nc3ccccc3c(=O)n2-c2ccccc2)c(=O)n(-c2ccccc2)n1C",
    "growth inhibition / %": -12.9
  },
  {
    "compound": "COc1cc2c(cc1Cc1cc(OC)c(OC)c(OC)c1)OCO2",
    "growth inhibition / %": 24.4
  },
  {
    "compound": "COC(CCCl)c1ccc(C)cc1 (stereo not drawn)",
    "growth inhibition / %": 1.8
  },
  {
    "compound": "C[S+]1CC2C3CC(C#N)C(C3)C2C1 (stereo not drawn)",
    "growth inhibition / %": 16.9
  },
  {
    "compound": "CC(C)S(=O)(=O)C(C)C",
    "growth inhibition / %": -5.85
  },
  {
    "compound": "C1CSC(Sc2nc(SC3=NCCS3)nc(SC3=NCCS3)n2)=N1",
    "growth inhibition / %": -26.4
  },
  {
    "compound": "CN(CCN(C)C(=O)CCOS(C)(=O)=O)C(=O)CCOS(C)(=O)=O",
    "growth inhibition / %": -51.5
  },
  {
    "compound": "COc1ccc2c(c1)C1(C)CCCC(C)C1=CC2=O (stereo not drawn)",
    "growth inhibition / %": 85
  },
  {
    "compound": "[N-]=[N+]=Nc1ccc(S(=O)(=O)Oc2cc(OS(=O)(=O)c3ccc(N=[N+]=[N-])cc3)cc(OS(=O)(=O)c3ccc(N=[N+]=[N-])cc3)c2)cc1",
    "growth inhibition / %": 14.1
  },
  {
    "compound": "CC(=O)CC(C)(C)N",
    "growth inhibition / %": -2.1
  },
  {
    "compound": "CC(C)(C)OC(=O)N1CCc2c(n(C/C=C/c3ccccc3)[nH]c2=O)C1",
    "growth inhibition / %": -19.4
  },
  {
    "compound": "O=[N+]([O-])c1ccc(/C=N\\NC(=S)Nc2ccc3cn[nH]c3c2)cc1",
    "growth inhibition / %": -9.65
  },
  {
    "compound": "OCc1ccccc1F",
    "growth inhibition / %": -36.2
  },
  {
    "compound": "O=C(c1ccncc1)c1c(Cc2ccccc2)ccc2ccccc12",
    "growth inhibition / %": -1.35
  },
  {
    "compound": "Cn1c(-c2ccccc2)cc(=O)cc1-c1ccccc1",
    "growth inhibition / %": -19.2
  },
  {
    "compound": "N#CC(=S)Nc1ccc(Cl)c(Cl)c1",
    "growth inhibition / %": 31.8
  },
  {
    "compound": "O=C(CSc1nnc(Cc2ccccc2)o1)Nc1ccccc1",
    "growth inhibition / %": -27.1
  },
  {
    "compound": "O=c1[nH]c(=S)[nH]n1C(=S)n1[nH]c(=S)[nH]c1=O",
    "growth inhibition / %": 9.6
  },
  {
    "compound": "CCOC(=O)c1csc(N)n1",
    "growth inhibition / %": -18.3
  },
  {
    "compound": "CCOC(=O)c1ccc(C(=N)N)cc1",
    "growth inhibition / %": 5.55
  },
  {
    "compound": "O=C(O)C1Cc2c([nH]c3ccccc23)C(c2cccs2)N1 (stereo not drawn)",
    "growth inhibition / %": 14.3
  },
  {
    "compound": "O/N=C1/CCCCC1NO (stereo not drawn)",
    "growth inhibition / %": -19.7
  },
  {
    "compound": "CCOC(=O)Nc1ccc([N+](=O)[O-])cc1[N+](=O)[O-]",
    "growth inhibition / %": 13.2
  },
  {
    "compound": "O=C(CC(=O)Nc1ccccc1)NNC(c1cc(N=Nc2ccc(Br)cc2)ccc1O)P(O)O (stereo not drawn)",
    "growth inhibition / %": -38
  },
  {
    "compound": "COc1ccc2c(c1)CCc1c(C(C)=O)c3ccccc3n1C2",
    "growth inhibition / %": 2.15
  },
  {
    "compound": "Cc1ccc(N(C(=O)CC(=O)NN)C(=O)c2ccccc2Cl)cc1",
    "growth inhibition / %": -5.9
  },
  {
    "compound": "CC1CN(C(=O)C2CCCN(CCc3ccccc3)C2)CC(C)O1 (stereo not drawn)",
    "growth inhibition / %": 22.7
  },
  {
    "compound": "N#C/C(=C/c1ccc(Cl)cc1)C(=O)O",
    "growth inhibition / %": 21.1
  },
  {
    "compound": "C/C(=N/NC(N)=O)C1C2CC3C(C2Cl)C31 (stereo not drawn)",
    "growth inhibition / %": -2.4
  },
  {
    "compound": "COc1ccc(COC=O)cc1",
    "growth inhibition / %": 24.4
  },
  {
    "compound": "O=C1CS(=O)(=O)c2ccccc21",
    "growth inhibition / %": 22.2
  },
  {
    "compound": "CC1CCC(OC(=O)Cc2ccccc2)CC1 (stereo not drawn)",
    "growth inhibition / %": 24.6
  },
  {
    "compound": "O=S(=O)(O)c1ccc2cc(O)ccc2c1",
    "growth inhibition / %": 28.4
  },
  {
    "compound": "CC(=O)OCC1OC(n2ccc(=O)[nH]c2=O)CC1N=[N+]=[N-] (stereo not drawn)",
    "growth inhibition / %": 0.35
  },
  {
    "compound": "CC1(C)C(=O)CCC2(C)C(OC(=O)c3ccc(C(=O)O)cc3)CCCC12 (stereo not drawn)",
    "growth inhibition / %": 18.4
  },
  {
    "compound": "Cc1[nH]n(C(N)=S)c(=O)c1N=Nc1c(Cl)cccc1Cl",
    "growth inhibition / %": 51
  }
]
